Data provenance: ChEMBL document CHEMBL1136735

Molecular target: UniProt P48039
Sequence (P48039 whole entry): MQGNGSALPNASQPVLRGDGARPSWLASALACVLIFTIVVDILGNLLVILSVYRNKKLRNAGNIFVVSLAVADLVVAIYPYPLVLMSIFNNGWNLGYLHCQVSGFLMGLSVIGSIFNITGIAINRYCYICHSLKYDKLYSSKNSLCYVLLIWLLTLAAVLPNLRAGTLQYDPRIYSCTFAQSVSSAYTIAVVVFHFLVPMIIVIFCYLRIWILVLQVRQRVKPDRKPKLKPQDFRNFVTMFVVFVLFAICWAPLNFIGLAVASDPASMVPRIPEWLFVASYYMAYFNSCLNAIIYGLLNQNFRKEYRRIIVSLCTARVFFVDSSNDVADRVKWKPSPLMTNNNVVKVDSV
Assay: Binding affinity for human Melatonin receptor type 1A stably transfected in human embryonic kidney cells (HEK 293) using 2-[125I]iodomelatonin as radioligand
pKi: −log10 of the molar value.
ASSAY_READOUT: pKi

// worked examples, pKi included
>  <SMILES_ENTRY>
CC(=O)NCCc1cccc2ccc(OCCCOc3ccc4cccc(CCNC(C)=O)c4c3)cc12

>  <pKi>
9.30

$$$$
>  <SMILES_ENTRY>
CC(=O)NCCc1cccc2ccc(OCCCCCOc3ccc4cccc(CCNC(C)=O)c4c3)cc12

>  <pKi>
10.30

$$$$

[1] CC(=O)NCCc1cccc2ccc(OCCCCCCCCOc3ccc4cccc(CCNC(C)=O)c4c3)cc12
[2] CC(=O)NCCc1cccc2ccc(OCCOc3ccc4cccc(CCNC(C)=O)c4c3)cc12
[3] CC(=O)NCCc1cccc2ccc(OCCCCOc3ccc4cccc(CCNC(C)=O)c4c3)cc12
[4] CC(=O)NCCc1cccc2ccc(OCCCCCCOc3ccc4cccc(CCNC(C)=O)c4c3)cc12
[5] CC(=O)NCCc1cccc2ccc(OCCCCCCCCCCOc3ccc4cccc(CCNC(C)=O)c4c3)cc12
[in] Hi! Can you put these in order of pKi, lowest number first? Reply with the labels, ordered as the question asks.
[out] 2, 3, 4, 1, 5
